System: pBMC from patients with CLL
experiment_summary: Cytotoxicity of several antineoplastic agents on pBMC (LC90), fixed volume flow cytometry
Assay type: cell-based, human
condition_label: pBMC of CLL patient #18, ex vivo; in µg/mL
Attribute: LC90

{"columns": ["compound", "LC90"],
 "data": [
  ["C[C@]12C=CC(=O)C=C1CC[C@@H]1[C@@H]2[C@@H](O)C[C@@]2(C)[C@H]1CC[C@]2(O)C(=O)CO", 0.51],
  ["O=C1c2c(O)ccc(O)c2C(=O)c2c(NCCNCCO)ccc(NCCNCCO)c21", 0.08],
  ["Nc1nc(Cl)nc2c1ncn2[C@H]1C[C@H](O)[C@@H](CO)O1", 0.013],
  ["Nc1nc(F)nc2c1ncn2[C@@H]1O[C@H](COP(=O)(O)O)[C@@H](O)[C@@H]1O [Fludarabine phosphate]", 0.55],
  ["CC[C@]1(O)C[C@H]2CN(CCc3c([nH]c4ccccc34)[C@@](C(=O)OC)(c3cc4c(cc3OC)N(C=O)[C@H]3[C@@](O)(C(=O)OC)[C@H](OC(C)=O)[C@]5(CC)C=CCN6CC[C@]43[C@@H]65)C2)C1", 0.70]
]}

Origin of the recorded values: patent US20100075370A1
